biological target: T1, mouse LTβR extracellular domain fused with an Fc fragment at the C-terminus (mouse, UniProt P50284 31-223); experiment: phage ELISA
T1 construct: extracellular domain; Bought; also called mLTβR; not shown: Fc fragment at the C-terminus
T1 sequence (P50284 31-223): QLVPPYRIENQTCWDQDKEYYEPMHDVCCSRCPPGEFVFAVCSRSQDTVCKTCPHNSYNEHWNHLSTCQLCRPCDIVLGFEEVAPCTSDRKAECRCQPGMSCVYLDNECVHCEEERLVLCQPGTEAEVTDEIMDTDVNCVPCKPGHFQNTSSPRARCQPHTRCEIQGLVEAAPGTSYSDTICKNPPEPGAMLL
readout_name: binding result

binder	readout_name	measured
LIGHT-75 (ligand, Printed mutations: Q117N, S160G, T161P, L220S, L227T; Soluble protein carries an N-terminal His tag) DGPAGSWEQLIQERRSHEVNPAAHLTGANSSLTGSGGPLLWETNLGLAFLRGLSYHDGALVVTKAGYYYIYSKVQLGGVGCPLGLAGPITHGLYKRTPRYPEELELLVSQQSPCGRATSSSRVWWDSSFLGGVVHLEAGEKVVVRVSDERLVRTRDGTRSYFGAFMV	binding result	binds
LIGHT-46 (ligand, Printed mutations: L126M, K214E; Soluble protein carries an N-terminal His tag) DGPAGSWEQLIQERRSHEVNPAAHLTGANSSLTGSGGPLLWETQLGLAFLRGMSYHDGALVVTKAGYYYIYSKVQLGGVGCPLGLASTITHGLYKRTPRYPEELELLVSQQSPCGRATSSSRVWWDSSFLGGVVHLEAGEEVVVRVLDERLVRLRDGTRSYFGAFMV	binding result	binds
LIGHT-85 (ligand, Printed mutations: Q117E, S160G, T161S, L220S, E222S, L227T; Soluble protein carries an N-terminal His tag) DGPAGSWEQLIQERRSHEVNPAAHLTGANSSLTGSGGPLLWETELGLAFLRGLSYHDGALVVTKAGYYYIYSKVQLGGVGCPLGLAGSITHGLYKRTPRYPEELELLVSQQSPCGRATSSSRVWWDSSFLGGVVHLEAGEKVVVRVSDSRLVRTRDGTRSYFGAFMV	binding result	binds
